Test system: NCI-H2405
Assay: relative viability (nuclei count vs DMSO), 5 days (fraction); higher = more cells survive
Conditions: first compound 0.02 µM
Mark Criterion met for relative viability under 0.6, Criterion not met if at or over.

Record excerpt, results attached:
compound	category_label
CCNC(=O)c1noc(-c2cc(C(C)C)c(O)cc2O)c1-c1ccc(CN2CCOCC2)cc1 [Luminespib] + Cc1nc(NC(=O)N2CCC[C@H]2C(N)=O)sc1-c1ccnc(C(C)(C)C(F)(F)F)c1 [Alpelisib] (partner 2 µM)	Criterion met
CN1CCN(CCOc2cc(OC3CCOCC3)c3c(Nc4c(Cl)ccc5c4OCO5)ncnc3c2)CC1 [Saracatinib] + C[C@]1(O)C[C@@H](c2nc(-c3ccc4ccc(-c5ccccc5)nc4c3)c3c(N)nccn32)C1 [Linsitinib] (partner 1 µM)	Criterion not met
CN1CCN(CCOc2cc(OC3CCOCC3)c3c(Nc4c(Cl)ccc5c4OCO5)ncnc3c2)CC1 [Saracatinib] + N=C(N)NC(=N)NCCc1ccccc1 [Phenformin] (partner 250 µM)	Criterion met
CN1CCN(CCOc2cc(OC3CCOCC3)c3c(Nc4c(Cl)ccc5c4OCO5)ncnc3c2)CC1 [Saracatinib] + CC(=O)c1c(C)c2cnc(Nc3ccc(N4CCNCC4)cn3)nc2n(C2CCCC2)c1=O [Palbociclib] (partner 0.5 µM)	Criterion met
CCNC(=O)c1noc(-c2cc(C(C)C)c(O)cc2O)c1-c1ccc(CN2CCOCC2)cc1 [Luminespib] + O=C(CCCCCCC(=O)Nc1ccccc1)NO [Vorinostat] (partner 1 µM)	Criterion not met

Please examine the following record next.
Field: below-cutoff. Rule: recorded relative viability strictly less than 0.6. Subject: CCNC(=O)c1noc(-c2cc(C(C)C)c(O)cc2O)c1-c1ccc(CN2CCOCC2)cc1 [Luminespib] + COc1cccc2cc(-c3nc([C@H]4CC[C@H](C(=O)O)CC4)n4ncnc(N)c34)[nH]c12 [OSI-027] (partner 0.5 µM)
Criterion met

###

System: SW 900
Experiment: relative viability (nuclei count vs DMSO), 5 days (fraction); higher = more cells survive
Conditions: first compound 0.2 µM
measured_endpoint: relative viability
Output spec: single numeric token, no unit.

compound	relative viability
Cc1csc(=NC2CCCCC2)n1/N=C/c1ccc(O)c(O)c1O [MIM1] + N=C(N)NC(=N)NCCc1ccccc1 [Phenformin] (partner 250 µM)	0.683
CN1CCN(CCOc2cc(OC3CCOCC3)c3c(Nc4c(Cl)ccc5c4OCO5)ncnc3c2)CC1 [Saracatinib] + Cc1nc(Nc2ncc(C(=O)Nc3c(C)cccc3Cl)s2)cc(N2CCN(CCO)CC2)n1 [Dasatinib] (partner 0.075 µM)	0.549

Reported relative viability for CN1CCN(CCOc2cc(OC3CCOCC3)c3c(Nc4c(Cl)ccc5c4OCO5)ncnc3c2)CC1 [Saracatinib] + N=C(N)NC(=N)NCCc1ccccc1 [Phenformin] (partner 250 µM) : what is it?
0.36

Another: CN1CCN(CCOc2cc(OC3CCOCC3)c3c(Nc4c(Cl)ccc5c4OCO5)ncnc3c2)CC1 [Saracatinib] + Nc1nc2[nH]cc(CCc3ccc(C(=O)N[C@@H](CCC(=O)O)C(=O)O)cc3)c2c(=O)[nH]1 [Pemetrexed] (partner 0.2 µM)
0.361

###

System: HCC-44
Experiment: relative viability (nuclei count vs DMSO), 5 days (fraction); higher = more cells survive
Conditions: first compound 0.003162 µM
measured_endpoint: relative viability
Output spec: single numeric token, no unit.

Example entries and their recorded answers appear below.
compound	measured_endpoint	quantitative_readout
Cc1cn(-c2cc(NC(=O)c3ccc(C)c(Nc4nccc(-c5cccnc5)n4)c3)cc(C(F)(F)F)c2)cn1 [Nilotinib] + CS(=O)(=O)CCNCc1ccc(-c2ccc3ncnc(Nc4ccc(OCc5cccc(F)c5)c(Cl)c4)c3c2)o1 [Lapatinib] (partner 2 µM)	relative viability	1.09
Cc1cn(-c2cc(NC(=O)c3ccc(C)c(Nc4nccc(-c5cccnc5)n4)c3)cc(C(F)(F)F)c2)cn1 [Nilotinib] + Cc1nc(NC(=O)N2CCC[C@H]2C(N)=O)sc1-c1ccnc(C(C)(C)C(F)(F)F)c1 [Alpelisib] (partner 2 µM)	relative viability	0.939
Cc1cn(-c2cc(NC(=O)c3ccc(C)c(Nc4nccc(-c5cccnc5)n4)c3)cc(C(F)(F)F)c2)cn1 [Nilotinib] + COc1cccc2cc(-c3nc([C@H]4CC[C@H](C(=O)O)CC4)n4ncnc(N)c34)[nH]c12 [OSI-027] (partner 0.5 µM)	relative viability	0.391
Cc1cn(-c2cc(NC(=O)c3ccc(C)c(Nc4nccc(-c5cccnc5)n4)c3)cc(C(F)(F)F)c2)cn1 [Nilotinib] + O=C(CCCCCCC(=O)Nc1ccccc1)NO [Vorinostat] (partner 1 µM)	relative viability	1.06

Note: attention shifts to another entry.
Requested read-out relative viability, target or system HCC-44, entry Cc1cn(-c2cc(NC(=O)c3ccc(C)c(Nc4nccc(-c5cccnc5)n4)c3)cc(C(F)(F)F)c2)cn1 [Nilotinib] + O=C(c1cc(Cc2n[nH]c(=O)c3ccccc23)ccc1F)N1CCN(C(=O)C2CC2)CC1 [Olaparib] (partner 8 µM)
0.97

###

Documented relative viability across a set of compounds
System: COR-L 105
Assay: relative viability (nuclei count vs DMSO), 5 days (fraction); higher = more cells survive
Conditions: first compound 0.253 µM
Output spec: single numeric token, no unit.

Example entries and their recorded answers appear below.
compound	relative viability
Nc1cccc2c1CN(C1CCC(=O)NC1=O)C2=O (stereo not drawn) [Lenalidomide] + CS(=O)(=O)N1CCN(Cc2cc3nc(-c4cccc5[nH]ncc45)nc(N4CCOCC4)c3s2)CC1 [Pictilisib] (partner 1 µM)	0.278
Nc1cccc2c1CN(C1CCC(=O)NC1=O)C2=O (stereo not drawn) [Lenalidomide] + Cc1cc(Nc2cc(N3CCN(C)CC3)nc(Sc3ccc(NC(=O)C4CC4)cc3)n2)n[nH]1 [Tozasertib] (partner 0.1 µM)	0.351

Note: attention shifts to another entry.
Reported relative viability for Nc1cccc2c1CN(C1CCC(=O)NC1=O)C2=O (stereo not drawn) [Lenalidomide] + C[C@@H](Oc1cc(-c2cnn(C3CCNCC3)c2)cnc1N)c1c(Cl)ccc(F)c1Cl [Crizotinib] (partner 1 µM) : what is it?
0.905

###

Documented relative viability across a set of compounds
Test system: LCLC-103H
Assay: relative viability (nuclei count vs DMSO), 5 days (fraction); higher = more cells survive
Settings: first compound 0.03162 µM
Output spec: single numeric token, no unit.

Reported relative viability for Cc1cn(-c2cc(NC(=O)c3ccc(C)c(Nc4nccc(-c5cccnc5)n4)c3)cc(C(F)(F)F)c2)cn1 [Nilotinib] + COc1cccc2cc(-c3nc([C@H]4CC[C@H](C(=O)O)CC4)n4ncnc(N)c34)[nH]c12 [OSI-027] (partner 0.5 µM) : what is it?
0.432

Another: Cc1cn(-c2cc(NC(=O)c3ccc(C)c(Nc4nccc(-c5cccnc5)n4)c3)cc(C(F)(F)F)c2)cn1 [Nilotinib] + Cc1nc(Nc2ncc(C(=O)Nc3c(C)cccc3Cl)s2)cc(N2CCN(CCO)CC2)n1 [Dasatinib] (partner 0.075 µM)
0.338

###

Test system: A-427
Test: relative viability (nuclei count vs DMSO), 5 days (fraction); higher = more cells survive
Conditions: first compound 0.01 µM
Documented relative viability across a set of molecules
Output spec: single numeric token, no unit.

Example entries and their recorded answers appear below.
molecule	measured_endpoint	quantitative_readout
Cc1cn(-c2cc(NC(=O)c3ccc(C)c(Nc4nccc(-c5cccnc5)n4)c3)cc(C(F)(F)F)c2)cn1 [Nilotinib] + CS(=O)(=O)N1CCN(Cc2cc3nc(-c4cccc5[nH]ncc45)nc(N4CCOCC4)c3s2)CC1 [Pictilisib] (partner 1 µM)	relative viability	0.731
Cc1cn(-c2cc(NC(=O)c3ccc(C)c(Nc4nccc(-c5cccnc5)n4)c3)cc(C(F)(F)F)c2)cn1 [Nilotinib] + C[C@@H](Oc1cc(-c2cnn(C3CCNCC3)c2)cnc1N)c1c(Cl)ccc(F)c1Cl [Crizotinib] (partner 1 µM)	relative viability	1.25
Cc1cn(-c2cc(NC(=O)c3ccc(C)c(Nc4nccc(-c5cccnc5)n4)c3)cc(C(F)(F)F)c2)cn1 [Nilotinib] + Cc1cc(Nc2cc(N3CCN(C)CC3)nc(Sc3ccc(NC(=O)C4CC4)cc3)n2)n[nH]1 [Tozasertib] (partner 0.1 µM)	relative viability	0.149

Note: attention shifts to another entry.
Reported relative viability for Cc1cn(-c2cc(NC(=O)c3ccc(C)c(Nc4nccc(-c5cccnc5)n4)c3)cc(C(F)(F)F)c2)cn1 [Nilotinib] + COc1cc2c(Oc3ccc(NC(=O)C4(C(=O)Nc5ccc(F)cc5)CC4)cc3F)ccnc2cc1OCCCN1CCOCC1 [Foretinib] (partner 0.25 µM) : what is it?
1.03

###

Tested on: LCLC-97TM1
Assay: relative viability (nuclei count vs DMSO), 5 days (fraction); higher = more cells survive
Conditions: first compound 0.02 µM
Documented relative viability across a set of compounds
Output spec: single numeric token, no unit.

compound	measured_endpoint	quantitative_readout
CN1CCN(CCOc2cc(OC3CCOCC3)c3c(Nc4c(Cl)ccc5c4OCO5)ncnc3c2)CC1 [Saracatinib] + Cc1nc(Nc2ncc(C(=O)Nc3c(C)cccc3Cl)s2)cc(N2CCN(CCO)CC2)n1 [Dasatinib] (partner 0.075 µM)	relative viability	0.636
CCNC(=O)c1noc(-c2cc(C(C)C)c(O)cc2O)c1-c1ccc(CN2CCOCC2)cc1 [Luminespib] + Cc1nc(Nc2ncc(C(=O)Nc3c(C)cccc3Cl)s2)cc(N2CCN(CCO)CC2)n1 [Dasatinib] (partner 0.075 µM)	relative viability	0.986
CN1CCN(CCOc2cc(OC3CCOCC3)c3c(Nc4c(Cl)ccc5c4OCO5)ncnc3c2)CC1 [Saracatinib] + CC1(C)CCC(c2ccc(Cl)cc2)=C(CN2CCN(c3ccc(C(=O)NS(=O)(=O)c4ccc(N[C@H](CCN5CCOCC5)CSc5ccccc5)c(S(=O)(=O)C(F)(F)F)c4)cc3)CC2)C1 [Navitoclax] (partner 0.5 µM)	relative viability	0.422

Requested read-out relative viability, target or system LCLC-97TM1, entry CCNC(=O)c1noc(-c2cc(C(C)C)c(O)cc2O)c1-c1ccc(CN2CCOCC2)cc1 [Luminespib] + COc1cccc2cc(-c3nc([C@H]4CC[C@H](C(=O)O)CC4)n4ncnc(N)c34)[nH]c12 [OSI-027] (partner 0.5 µM)
0.304

Entry source: the supplement of paper PMC10307832
